# Tested on: Escherichia coli TOP10;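 also: peptides expressed intracellularly from a pBAD plasmid library in pooled LB shake-flask culture, induced with 0.3% L-arabinose, DNA abundance read by NGS, three biological replicates, DESeq2 with apeglm shrinkage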
# assayNotes: shrunken log2 fold change of peptide-encoding DNA abundance (4.5 h post-induction vs induction); higher = less antimicrobial activity (less host growth inhibition)
# runParameters: time post-induction: 4.5 h; library: site-saturation at positions 5, 18, 19, 20
Please respond with reported shrunken log2 fold change for every item in the list.
Lab note: write the figure by itself, no unit.

Observed shrunken log2 fold change, Escherichia coli TOP10, RRIRTRPPRLPRPRPRPPNPPRP : 0.442

Hey, Escherichia coli TOP10 data for RRIRERPPRLPRPRPRPAGYPRP : shrunken log2 fold change came out at 0.0991

Measured shrunken log2 fold change for this entry RRIRQRPPRLPRPRPRPDRFPRP on Escherichia coli TOP10: 0.0204

Query RRIRCRPPRLPRPRPRPQEQPRP on Escherichia coli TOP10; shrunken log2 fold change returned: 0.0612

The reported shrunken log2 fold change value, Escherichia coli TOP10, for RRIRVRPPRLPRPRPRPEHKPRP reads -0.0815
